study-target: SHP2-C SH2;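 further: peptide library displayed on the E. coli surface as eCPX fusions, selected cells deep-sequenced, score is each peptide's frequency after selection divided by its frequency in the input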
experiment-description: SH2 binding enrichment of the phosphorylated peptide, bacterial display (enrichment ratio); higher = better substrate or ligand; peptides without Tyr show the background
assay-metric: SH2 binding enrichment

Some sequences with recorded SH2 binding enrichment:
CEHRGCLYLAI [TEK_Y897_Y897C]    0.753
DDKEFYSVHNK [MET_Y1235_Y1230D_YF]    0.621
EWQQTYTYDSG [JUP_Y20]    0.775
MHDSNSVSKGS [PDGFRA_Y849_Y849S]    0.595
RIVEIYTRRLQ [GCH1_Y175_S176T]    0.58

A. SLQSEYVHYGG [CDC14A_Y591]
B. PLLEYYWDIFT [CDAN1_Y713_R714W]
Challenge: // returns A or B , whichever has the lower SH2 binding enrichment Answer = label.
Response given: A
(A: 0.69, B: 1.25)
